# Protocol summary: in vitro
# Particulars: mouse, hepatocytes
Property label: CLint scaled (L/h/kg)
Response body: numeric value in L/h/kg, unit text excluded.

CLint scaled recorded for this compound, CCC(CC)c1cc(N[C@H]2CC[C@H](N)C2)n2nccc2n1 , is 2.64

###

# Protocol summary: Projection of human PK parameters
# Particulars: human, plasma, one-compartment; read-out: estimated human terminal half-life (converted)
Property label: half-life

Record CCC(CC)c1cc(N[C@H]2CC[C@H](N)C2)n2nccc2n1 . Reported half-life: ~35 h

Sourced from paper PMC10726352
